The measurements presented in this section are drawn from the array DNA melting data of Ke et al. (doi:10.1101/2024.01.08.574731).

PROTOCOL_DETAILS: melting temperature; fluorescence melt of hairpins on a sequencing array, two-state fit, raised by 9.35 °C to match UV melts
ASSAY_CONDITIONS: sodium 0.088 M
OUTCOME_MEASURE: Tm (°C)
API: value field is a number in °C; no unit string.

Recorded results for 5 sequences are shown here.
BIOSEQUENCE: GTTCCCGGAAACGGGGAC ((.((((....)))).))
UNIT_OF_MEASURE: °C
Tm: 58.5
//
BIOSEQUENCE: GGGGTTGGAAACAATCCC (((.(((....))).)))
UNIT_OF_MEASURE: °C
Tm: 52.5
//
BIOSEQUENCE: GCGTCTGGAAACGGATGC ((.((.(....).)).))
UNIT_OF_MEASURE: °C
Tm: 44.4
//
BIOSEQUENCE: GATCCGATTCGGATC ((((((...))))))
UNIT_OF_MEASURE: °C
Tm: 58.3
//
BIOSEQUENCE: GATCAATCGCTTGATC ((((((....))))))
UNIT_OF_MEASURE: °C
Tm: 45.5

Query :: Looking for the measured Tm of GGGTGGGGAAACCCACTC (.(((((....))))).) , can you help?
Result :: 53

Query :: Query GCCACGCGAAAGCGATGC ((..(((....)))..)) next
Result :: 43.3

Query :: Query GCGAACGGAAACACTCGC ((((..(....)..)))) next
Result :: 32.3

Query :: Query GGAGATGAAAATCTCC ((((((....)))))) next
Result :: 57.6

Query :: Query GCGTTCGAAAGAAGACGC ((((((....)))..))) next
Result :: 46.9

Query :: Query GGACGTGCGAAAGCATCC (((..(((....)))))) next
Result :: 30.6

Query :: Query GTGTTACGAAAGTACAC (((.(((....)))))) next
Result :: 47.9
